Each recorded value in this set is attributed to PubChem BioAssay (EPA / NIEHS).

Tested Target: human Peripheral-type Benzodiazepine Receptor (PBR), TSPO (gene 706)
Method Summary: NVS_MP_hPBR: NovaScreen (NVS) Membrane Protein Assay for human Peripheral-type Benzodiazepine Receptor (PBR) (AID 2283331);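 also: hits reduce radioligand binding relative to DMSO baseline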
Records with an inconclusive call do not appear. The source made the active and inactive calls. The calls were made as follows: active = hit-call score of the fitted dose curve at least 0.9, where 1 is the maximum; inconclusive = response in the unintended direction; inactive = score below 0.9.
Give your call using only these classes: active, inactive

Solved cases (2 shown):
Molecule	Class Name
CNC(=O)ON=C(SC)C(=O)N(C)C	inactive
CN(C)C(=O)Nc1cccc(C(F)(F)F)c1	active

Prompt: Answer briefly: the call reported for CCCCOC(=O)c1ccccc1C(=O)O in this assay.
Completion: inactive

Prompt: Answer briefly: the call reported for C#CCC1=C(C)C(OC(=O)C2C(C=C(C)C)C2(C)C)CC1=O (stereo unspecified) in this assay.
Completion: inactive

Prompt: Answer briefly: the call reported for CNc1cnn(-c2cccc(C(F)(F)F)c2)c(=O)c1Cl in this assay.
Completion: active
